# Test system: M. tuberculosis H37Rv growth inhibition
# methodDescription: M. tuberculosis H37Rv growth inhibitors, H37Rv strain (AID 1626)
# measurementParameters: measured here: Vero cell cytotoxicity
experimentalEndpoint: CC50 (µM)
Provide the reading as a plain figure in µM.

## Input Fill in CC50 for "COc1ccc(Cn2c(SCc3cc(C)ccc3C)nc3cc(OC)c(OC)cc3c2=N)cc1" tested with M. tuberculosis H37Rv growth inhibition.
## Output 7.51

## Input Fill in CC50 for "CCN1CCN(c2cc(C(C)(C)C)nc3c(-c4ccccc4)c(C)nn23)CC1" tested with M. tuberculosis H37Rv growth inhibition.
## Output 30.6

## Input Fill in CC50 for CCOC(=O)c1cnc(-n2nc(C)cc2C)nc1NC(C)c1ccccc1 (stereo not given) tested with M. tuberculosis H37Rv growth inhibition.
## Output 36

## Input Fill in CC50 for "COc1cnc(-c2ccccn2)nc1Oc1c(C)cccc1C" tested with M. tuberculosis H37Rv growth inhibition.
## Output 19.8

## Input Fill in CC50 for OC(CNCc1ccco1)Cn1c2ccc(Br)cc2c2cc(Br)ccc21 (stereo not given) tested with M. tuberculosis H37Rv growth inhibition.
## Output 17.2

## Input Fill in CC50 for CCOC(=O)c1c(C)n(-c2ccc(C)cc2)c2ccc(OCC(O)CNCCCO)cc12 (stereo not given) tested with M. tuberculosis H37Rv growth inhibition.
## Output 13

---

# System: M. tuberculosis H37Rv growth inhibition
# methodDescription: M. tuberculosis H37Rv growth inhibitors, H37Rv strain (AID 1626)
experimentalEndpoint: IC50

## Input Kindly indicate its recorded IC50. Item: "Cc1ccc(-c2csc3nc[nH]c(=S)c23)cc1C"
## Output 20 µM

## Input Kindly indicate its recorded IC50. Item: "COc1ccccc1Sc1nc(-c2ccccn2)ncc1OC"
## Output 1.04 µM

## Input Kindly indicate its recorded IC50. Item: "CCCCCCCCSc1nnc(CSc2nc3nc(C)cc(C)n3n2)o1"
## Output 0.635 µM

## Input Kindly indicate its recorded IC50. Item: "O=C(CSc1ncn[nH]1)Nc1ccc(Br)cc1F"
## Output 29.5 µM

## Input Kindly indicate its recorded IC50. Item: "CCOC(=O)c1ccc(NC(=O)CCOc2ccc(OC)cc2)cc1"
## Output 9.49 µM

## Input Kindly indicate its recorded IC50. Item: CC(=O)CC1(OC(C)=O)C(=O)N(C)c2ccccc21 (stereo not drawn)
## Output 5.34 µM

## Input Kindly indicate its recorded IC50. Item: "Cc1ccc2nc(/C(C#N)=C\c3ccc([N+](=O)[O-])o3)[nH]c2c1"
## Output < 0.195 µM

## Input Kindly indicate its recorded IC50. Item: CCCCc1ccc(NC(=O)C2CCCO2)cc1 (stereo not drawn)
## Output 1.71 µM

## Input Kindly indicate its recorded IC50. Item: O=C(/C=C/c1cccc([N+](=O)[O-])c1)NC1CC2CCC1C2 (stereo not drawn)
## Output 6.04 µM

## Input Kindly indicate its recorded IC50. Item: "CC(C)Cc1cc(C(=O)Nc2c(F)cc(F)cc2Br)no1"
## Output 6.59 µM

## Input Kindly indicate its recorded IC50. Item: "CC(=O)Nc1sc2c(c1CN1CCN(c3ccc(F)cc3)CC1)CCCC2"
## Output 13.2 µM

## Input Kindly indicate its recorded IC50. Item: "Cn1c(-c2c(N)n(CCc3ccccc3)c3nc4ccccc4nc23)nc2ccccc21"
## Output 1.83 µM

## Input Kindly indicate its recorded IC50. Item: "O=C(C[n+]1cnn(CC(=O)c2ccc(Cl)cc2Cl)c1)c1ccc([N+](=O)[O-])cc1"
## Output 20.3 µM

## Input Kindly indicate its recorded IC50. Item: "CCN1CCN(Cc2ccc(NC(=O)c3ccc(C)c(NC(=O)c4c[nH]c5cc(C(F)(F)F)ccc5c4=O)c3)cc2C(F)(F)F)CC1"
## Output 3.86 µM

## Input Kindly indicate its recorded IC50. Item: "O=c1nc(/C=C/c2ccc(-c3ccc(F)cc3)o2)cc(C(F)(F)F)[nH]1"
## Output 10.4 µM

## Input Kindly indicate its recorded IC50. Item: "Cc1ccc(NC(=O)NC2CCCCC2)cc1Cl"
## Output 6.04 µM

## Input Kindly indicate its recorded IC50. Item: "Cc1nc(SCC(=O)Nc2cc(C)on2)c2c3c(sc2n1)CCCC3"
## Output < 0.195 µM

## Input Kindly indicate its recorded IC50. Item: "CC(C)(C)C(=O)COC(=O)c1cc2ccccc2cc1O"
## Output 2.73 µM

## Input Kindly indicate its recorded IC50. Item: "CCOC(=O)c1ccc(NC(=O)CCSCCc2ccccn2)cc1"
## Output 55.4 µM

## Input Kindly indicate its recorded IC50. Item: "Cc1ccc(C)c(-c2csc(NC(=O)c3cnccn3)n2)c1"
## Output 2.6 µM

## Input Kindly indicate its recorded IC50. Item: "CC(=O)c1ccc(OCC(=O)Nc2ccc3c(c2)CCC3)cc1"
## Output 12.6 µM

## Input Kindly indicate its recorded IC50. Item: "Cc1c2ccncc2c(C)c2c1[nH]c1ccccc12"
## Output 0.465 µM

## Input Kindly indicate its recorded IC50. Item: "CC(C)(C)c1ccc(-c2cn(-c3ccc(Br)cc3)c3[n+]2CCCS3)cc1"
## Output 2.62 µM
